Cited source: ChEMBL document CHEMBL1201862

Can you tell me EC50 for the items I'm about to list?
tested.on: Zinc finger protein mex-5 (Caenorhabditis elegans, UniProt Q9XUB2)
Sequence (Q9XUB2 whole entry): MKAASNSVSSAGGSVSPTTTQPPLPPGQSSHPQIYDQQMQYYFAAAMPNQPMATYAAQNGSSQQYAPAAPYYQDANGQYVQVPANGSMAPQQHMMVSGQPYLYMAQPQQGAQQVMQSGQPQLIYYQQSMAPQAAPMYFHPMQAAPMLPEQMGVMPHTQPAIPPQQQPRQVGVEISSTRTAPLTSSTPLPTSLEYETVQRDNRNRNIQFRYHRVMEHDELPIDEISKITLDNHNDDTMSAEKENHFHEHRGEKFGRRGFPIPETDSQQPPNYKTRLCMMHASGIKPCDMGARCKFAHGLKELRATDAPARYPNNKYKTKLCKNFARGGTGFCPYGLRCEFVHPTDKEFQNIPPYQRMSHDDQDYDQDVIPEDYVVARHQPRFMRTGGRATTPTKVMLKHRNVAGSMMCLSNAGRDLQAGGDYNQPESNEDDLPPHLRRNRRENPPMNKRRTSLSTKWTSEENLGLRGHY
experiment.description: potency of MEX-5 RNA-binding blockers – biochemical, C. elegans, fluorescence polarization, dose response (AID 1960)
Active and inactive are the calls of the source.

Past entries and their recorded results:
> print(dat)
                                   compound                    val
1  Cc1cc(/C=c2\sc3nc4ccccc4n3c2=O)c(C)n1-c1ccc(C(=O)O)cc1  > 300 µM (not active)
2  CN(C)c1cc(-c2ccc([N+](=O)[O-])cc2)oc(=O)c1Cl  165 µM (inconclusive)
3  COc1ccc(C2=CC3=C(Br)C(=O)C(C)(OC(=O)c4ccco4)C(=O)C3=CO2)cc1 (centres undefined)       35.9 µM (active)
4  CCCn1nc(C(=O)Nc2ccc(S(=O)(=O)Nc3nccs3)cc2)c2ccccc2c1=O       27.8 µM (active)

Please report EC50 for every entry that follows.
1. Cc1ccn2cc(-c3ccc(O)c(O)c3)nc2c1
2. O=S(=O)(Nc1cc(Sc2cccc3cccnc23)c(O)c2ccccc12)c1ccc(F)cc1
3. CN1C(=O)C(=CNc2ccc(N3CCOCC3)cc2)C(=O)N(C)C1=S
4. COC(=O)C1=COC(C)C2CN3CCc4c([nH]c5cc(OC)c(OC)cc45)C3CC12 (centres undefined)
5. CCCCNC(=S)NNC(=O)c1cc(C)on1
6. O=C/C(=C\Nc1ccccn1)c1nc2cc(Cl)ccc2o1
7. c1ccc(-c2nnc(-c3ccccn3)nn2)nc1

1. 6.88 µM (active)
2. 40.1 µM (active)
3. > 300 µM (inconclusive)
4. 14.4 µM (active)
5. > 300 µM (not active)
6. 36.4 µM (active)
7. 49.8 µM (inconclusive)

Please report EC50 for every entry that follows.
1. N#Cc1c(-c2ccccc2Cl)c2c([nH]c1=O)-c1ccccc1OC2
2. COc1ccc(CCN2C(=O)NC(=O)/C(=C\NNC(=O)c3ccncc3)C2=O)cc1OC
3. Cc1cc(/C=C2\C(=O)NC(=O)N(c3ccc(Cl)cc3)C2=O)c(C)n1-c1cccc(C(=O)O)c1

38.8 µM (active)
43.7 µM (active)
65.9 µM (active)

====

tested.on: DNA repair and recombination protein RAD54-like (Homo sapiens)
Sequence (Q92698 whole entry): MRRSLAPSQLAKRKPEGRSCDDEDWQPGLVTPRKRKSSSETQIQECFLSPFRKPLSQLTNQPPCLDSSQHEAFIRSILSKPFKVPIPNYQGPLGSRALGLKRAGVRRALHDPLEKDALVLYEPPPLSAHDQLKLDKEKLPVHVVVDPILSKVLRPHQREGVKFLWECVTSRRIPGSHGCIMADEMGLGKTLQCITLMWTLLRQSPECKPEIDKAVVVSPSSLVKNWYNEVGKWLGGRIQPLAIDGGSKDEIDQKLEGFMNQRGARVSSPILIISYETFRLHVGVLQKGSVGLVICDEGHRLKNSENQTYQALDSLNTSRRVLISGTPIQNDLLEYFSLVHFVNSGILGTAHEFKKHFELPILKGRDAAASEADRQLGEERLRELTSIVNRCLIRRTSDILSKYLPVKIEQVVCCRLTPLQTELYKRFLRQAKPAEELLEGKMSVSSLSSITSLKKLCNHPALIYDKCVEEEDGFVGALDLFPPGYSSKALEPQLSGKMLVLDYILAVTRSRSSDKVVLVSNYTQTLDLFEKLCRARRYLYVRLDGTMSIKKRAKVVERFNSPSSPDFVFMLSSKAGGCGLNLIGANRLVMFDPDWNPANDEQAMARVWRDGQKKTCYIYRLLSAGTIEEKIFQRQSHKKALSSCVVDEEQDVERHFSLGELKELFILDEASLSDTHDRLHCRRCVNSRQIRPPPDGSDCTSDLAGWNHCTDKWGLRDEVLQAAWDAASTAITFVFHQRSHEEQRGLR
experiment.description: RAD54 Holliday junction migration blockers – biochemical, fluorescence, cherry-picked samples, dose series, confirmation (AID 651657)
Type: functional
The source made the active and inactive calls.
Can you tell me AC50 for the items I'm about to list?

> print(dat)
                                   molecule                                 tested.on               val
1  Cc1nc2ccccc2c2oc(C(=O)NCCN3CCCCC3C)cc12 (centres undefined)  DNA repair and recombination protein RAD54-like (Homo sapiens)  35.2 µM (active)
2  COc1ccc(Cl)c2sc(N(CCN(C)C)C(=O)C3=COCCO3)nc12  DNA repair and recombination protein RAD54-like (Homo sapiens)    38 µM (active)
3  COc1ccc(-c2cc(NC=O)c3ncc(-c4cccc(C(=O)NCCN(C)C)c4)n3c2)cc1  DNA repair and recombination protein RAD54-like (Homo sapiens)  9.93 µM (active)

Would you kindly look at the next entry?
Request the reported AC50 associated with CC1CCN(CCCNC(=O)c2cc3c(=O)n(C)c4ccccc4c3n2C)CC1
27.8 µM (active)

====

Test system: Streptococcus
experiment.description: GAS UMAA2166 growth inhibition – luminescence, BacTiterGlo, counter-screen for streptokinase expression inhibitor project, dose response (AID 1915);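 further: potency for reduction of bacterial viability or growth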
Type: functional, organism-based
The source made the active and inactive calls.
Can you tell me EC50 for the items I'm about to list?

Past entries and their recorded results:
> print(dat)
                                   compound      tested.on  measured.endpoint                    val
1      CC(C)(C)c1csc(NNC(=O)c2ccc(Br)cc2)n1  Streptococcus               EC50  > 150 µM (not active)
2  C=CCn1c(O)c(N=NC(S)=Nc2ccccc2F)c2ccccc21  Streptococcus               EC50       1.08 µM (active)
3  CCN(CCn1cccn1)C(=O)CC1C(=O)NCCN1CCc1ccccc1 (configuration not stated)  Streptococcus               EC50  > 150 µM (not active)

Please report EC50 for every entry that follows.
1. O=S(=O)(Nc1ccc(-n2cccc2)cc1)c1ccc(Cl)c(Cl)c1
2. O=C(N/N=C/c1c[nH]c2ccccc12)c1cc(-c2ccc(-c3ccccc3)cc2)[nH]n1
3. Cc1ccc(N/N=C(\C#N)C(=N)S)c(C)c1
4. CCC(C(=O)NCCCN1CCCC1=O)n1c2ccccc2c2nc(=O)cc(C)n21 (configuration not stated)

7.58 µM (active)
1.56 µM (active)
20.8 µM (active)
> 150 µM (not active)

====

tested.on: Cytochrome P450 2C19 (Homo sapiens)
Sequence (P33261 whole entry): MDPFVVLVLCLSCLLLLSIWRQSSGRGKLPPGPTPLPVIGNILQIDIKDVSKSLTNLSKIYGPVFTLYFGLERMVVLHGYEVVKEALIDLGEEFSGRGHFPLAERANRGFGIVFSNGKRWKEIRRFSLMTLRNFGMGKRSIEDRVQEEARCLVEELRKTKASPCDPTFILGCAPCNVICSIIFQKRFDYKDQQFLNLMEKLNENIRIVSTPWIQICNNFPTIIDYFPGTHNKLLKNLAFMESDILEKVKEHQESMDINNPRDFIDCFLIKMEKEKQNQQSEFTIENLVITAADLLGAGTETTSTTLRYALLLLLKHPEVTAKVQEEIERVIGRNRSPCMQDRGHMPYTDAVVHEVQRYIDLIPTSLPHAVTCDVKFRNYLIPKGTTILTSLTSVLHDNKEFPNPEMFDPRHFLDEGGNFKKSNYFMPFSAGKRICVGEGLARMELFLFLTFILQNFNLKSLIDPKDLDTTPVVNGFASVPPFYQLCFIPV
experiment.description: Cytochrome panel assay with activity outcomes. Panel member name: p450-cyp2c19 Compounds with AC50 equal or less than 10 uM are considered active
Type: functional
condition.summary: read-out: AC50
measured.endpoint: AC50

> print(dat)
                                   compound                            tested.on  measured.endpoint                     val
1  CN(C)/C(CN1CCOCC1)=C1\N=C(c2ccccc2)OC1=O  Cytochrome P450 2C19 (Homo sapiens)               AC50  7.94 µM (inconclusive)
2       O=C1CSc2ccc(C(=O)NCCC3=CCCCC3)cc2N1  Cytochrome P450 2C19 (Homo sapiens)               AC50  7.94 µM (inconclusive)
3     N=C(N)SCc1cccc2c(=O)cc(-c3ccccc3)oc12  Cytochrome P450 2C19 (Homo sapiens)               AC50  3.98 µM (inconclusive)
4  COc1cccc(C(C#N)N2N=C(C)CC2(C)C)c1O (stereo not given)  Cytochrome P450 2C19 (Homo sapiens)               AC50  2.24 µM (inconclusive)
5           O=S(=O)(c1cccc2cnccc12)N1CCNCC1  Cytochrome P450 2C19 (Homo sapiens)               AC50    10 µM (inconclusive)

Please report AC50 for every entry that follows.
1. COC(=O)c1ccc(C(=O)OC)c(NC(=O)CSCc2ccc(Br)cc2)c1
2. O=C(Oc1ccccc1)N1CCC2(CC1)CN(Cc1ccncc1)C2
3. CCSc1nnc(NC(=O)Cc2ccccc2OC)s1
4. Oc1c(CN2CCCCC2)cc(Br)c2cccnc12
5. Nc1ccc(-c2nc3ccc(N)c(Cl)c3[nH]2)cc1

1: 2.24 µM (inconclusive); 2: 20 µM (inconclusive); 3: 1.41 µM (inconclusive); 4: 39.8 µM (inconclusive); 5: 6.31 µM (inconclusive)

====

tested.on: Bifunctional protein GlmU (Mycobacterium tuberculosis, UniProt P9WMN3)
Sequence (P9WMN3 whole entry): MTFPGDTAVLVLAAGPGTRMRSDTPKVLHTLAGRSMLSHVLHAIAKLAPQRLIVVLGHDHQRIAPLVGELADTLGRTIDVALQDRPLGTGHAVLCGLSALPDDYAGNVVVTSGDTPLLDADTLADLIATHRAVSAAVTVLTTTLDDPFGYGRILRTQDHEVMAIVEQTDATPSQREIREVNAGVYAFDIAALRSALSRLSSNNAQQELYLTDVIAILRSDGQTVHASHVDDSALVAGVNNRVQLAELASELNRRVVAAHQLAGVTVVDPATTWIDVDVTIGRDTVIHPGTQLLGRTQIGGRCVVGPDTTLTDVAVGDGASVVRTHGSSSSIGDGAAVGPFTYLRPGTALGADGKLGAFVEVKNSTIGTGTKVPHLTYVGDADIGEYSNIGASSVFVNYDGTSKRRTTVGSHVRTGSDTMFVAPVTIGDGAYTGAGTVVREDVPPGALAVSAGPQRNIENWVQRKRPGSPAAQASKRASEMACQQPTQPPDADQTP
experiment.description: Inhibitors of Mycobacterial Glucosamine-1-phosphate acetyl transferase (GlmU). Secondary screen.
Set-up: species or system Mycobacterium tuberculosis H37Rv
Active and inactive are the calls of the source.
measured.endpoint: IC50

Past entries and their recorded results:
> print(dat)
                                        smi  measured.endpoint              val
1  Cc1cc(/C=c2\sc3nc4ccccc4n3c2=O)c(C)n1-c1ccc(C(=O)O)cc1               IC50  171 µM (active)
2  O=C(O)c1c2c(nc3ccccc13)/C(=C/c1ccc(O)cc1)CC2               IC50  124 µM (active)

Please report IC50 for every entry that follows.
1. Cc1ccc(C)n1-c1sccc1C(=O)O
2. Cc1cccc(N2C(=O)NC(=O)/C(=C/c3ccc([N+](=O)[O-])o3)C2=O)c1

1. 46.9 µM (active)
2. 149 µM (active)

====

tested.on: UniProtKB P9WHJ3
Sequence (P9WHJ3 whole entry): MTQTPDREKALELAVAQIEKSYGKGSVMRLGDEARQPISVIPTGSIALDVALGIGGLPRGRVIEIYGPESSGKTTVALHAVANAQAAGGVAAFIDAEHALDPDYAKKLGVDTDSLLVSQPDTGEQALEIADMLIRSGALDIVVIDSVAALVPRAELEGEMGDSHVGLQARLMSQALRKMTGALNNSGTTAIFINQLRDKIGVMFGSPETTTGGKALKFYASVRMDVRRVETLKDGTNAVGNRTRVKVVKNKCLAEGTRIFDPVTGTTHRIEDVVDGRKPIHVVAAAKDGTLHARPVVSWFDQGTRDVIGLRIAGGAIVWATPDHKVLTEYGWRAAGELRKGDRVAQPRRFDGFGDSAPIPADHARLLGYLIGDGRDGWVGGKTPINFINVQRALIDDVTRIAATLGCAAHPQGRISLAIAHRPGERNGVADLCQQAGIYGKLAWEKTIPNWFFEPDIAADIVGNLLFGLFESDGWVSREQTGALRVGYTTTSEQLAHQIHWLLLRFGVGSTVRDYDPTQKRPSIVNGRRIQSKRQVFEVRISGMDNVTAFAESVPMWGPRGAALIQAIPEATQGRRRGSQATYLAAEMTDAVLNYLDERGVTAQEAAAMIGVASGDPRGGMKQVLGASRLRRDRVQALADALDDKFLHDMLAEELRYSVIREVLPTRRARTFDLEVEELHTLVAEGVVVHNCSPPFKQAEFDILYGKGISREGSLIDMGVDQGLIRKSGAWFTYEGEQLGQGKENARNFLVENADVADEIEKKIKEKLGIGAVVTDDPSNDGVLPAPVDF
experiment.description: Fluorescence Cell-Free Homogeneous Dose Retest to Identify Inhibitors of RecA-Intein Splicing Activity. [Related pubchem assays (depositor defined):AID2097, AID2223, AID489010, AID492950]
Type: functional
Active and inactive are the calls of the source.
The reply should name one outcome from active, inactive

Solved entries:
> print(dat)
                                   molecule  category
1  O=[N+]([O-])c1c(NCCCO)cc(SCc2ccco2)c2nonc12    active
2  COc1cc(C2(c3ccc(O)c(OC)c3)C(=O)Nc3c(Br)cc(Br)cc32)ccc1O    active
3  COC(=O)c1cc([N+](=O)[O-])c(-n2ccnc2)c([N+](=O)[O-])c1    active
4  CCOc1cc(/C=C2/C(=N)N3OC(C)=CC3=NC2=O)ccc1O    active
5            COc1cccc(-n2nnnc2S(C)(=O)=O)c1    active

Okay, now this molecule:
What did the test return for O=C(NN=c1c(=O)c2ccccc2c1=O)c1ccccc1 ?
active
